B1: ACSBG2 (parent)
chain: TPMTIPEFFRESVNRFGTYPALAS

Variants of: B1
Test protocol: protein stability index of a GFP-peptide fusion (GPS, HEK-293T) (PSI 1-6); higher = more stable;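 also: lentivirally expressed fusions sorted by FACS into six bins by GFP to DsRed ratio, PSI derived from sequencing read proportions per bin multiplied by bin number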
Applied conditions: c terminus: a fixed tail appended
Readout type: protein stability index
// no unit, no text: just the number

Given the variant TPMTIPEFFRESVNRFGRYPALAS [T18R] , what is its reported protein stability index?
2.17

Same thing, different variant: TPMTIPEFFRASVNRFGTYPALAS [E11A]
1.95

Same thing, different variant: TPMTIPEFFQESVNRFGTYPALAS [R10Q]
2.62

Same thing, different variant: TPMTIPEFFRESVNRFGTYPAHAS [L22H]
2.61

Same thing, different variant: TPMTDPEFFRESVNRFGTYPALAS [I5D]
2.7

Same thing, different variant: TPKTIPEFFRESVNRFGTYPALAS [M3K]
2.46

Same thing, different variant: TPMTIPEFFRESVNRFGTYPKLAS [A21K]
2.87

Same thing, different variant: TPMTIPEFFRESVNRHGTYPALAS [F16H]
3.03

Same thing, different variant: FPMTIPEFFRESVNRFGTYPALAS [T1F]
2.24

Same thing, different variant: TPMTIPEFYRESVNRFGTYPALAS [F9Y]
2.71

Same thing, different variant: TPMTIPEFFRKSVNRFGTYPALAS [E11K]
2.09

Data origin: the supplement of paper PMC10567573
